Would you kindly list MIC for each of these compounds?
# Tested on: Staphylococcus aureus
# test: Antibacterial activity against vancomycin-intermediate-resistant Staphylococcus aureus assessed as growth inhibition by broth microdilution method
# Format: functional
Numbers only, in µM.

CCCCCCCCCCCCCC[N+](C)(C)CCCNC(=O)[C@H]1NC(=O)[C@H]2NC(=O)[C@H](NC(=O)[C@@H]3NC(=O)[C@H](CC(N)=O)NC(=O)[C@H](NC(=O)[C@@H](CC(C)C)NC)[C@H](O)c4ccc(c(Cl)c4)Oc4cc3cc(c4O[C@@H]3O[C@H](CO)[C@@H](O)[C@H](O)[C@H]3O[C@H]3C[C@](C)(N)[C@H](O)[C@H](C)O3)Oc3ccc(cc3Cl)[C@H]2O)c2ccc(O)c(c2)-c2c(O)cc(O)cc21.O=C([O-])C(F)(F)F :: 0.36

Switching to the query record.
**Q:** MIC for CN[C@H](CC(C)C)C(=O)N[C@H]1C(=O)N[C@@H](CC(N)=O)C(=O)N[C@H]2C(=O)N[C@H]3C(=O)N[C@H](C(=O)N[C@H](C(=O)O)c4cc(O)cc(O)c4-c4cc3ccc4O)[C@H](O)c3ccc(c(Cl)c3)Oc3cc2cc(c3O[C@@H]2O[C@H](CO)[C@@H](O)[C@H](O)[C@H]2O[C@H]2C[C@](C)(N)[C@H](O)[C@H](C)O2)Oc2ccc(cc2Cl)[C@H]1O [VANCOMYCIN] ?
**A:** 13
